System: human PKK mRNA
PROCEDURE DETAILS: Antisense inhibition of human PKK mRNA in HepaRG cells, 1,000 nM, MOE/deoxy/cEt oligonucleotides (Example 3)
Format: cell-based
TEST CONDITIONS: Table 28; HepaRG cells, 1,000 nM antisense oligonucleotide; human PKK mRNA
Strand notation (5' to 3'): a small letter for the sugar, then the base; units joined by * are phosphorothioate-linked, units joined directly phosphodiester-linked; [ ] holds rarer units or linkages, { } end groups; capitals alone tell only the bases. e = 2'-O-(2-methoxyethyl) (MOE); k = constrained ethyl (cEt); [5mC] = 5-methylcytosine; d = 2'-deoxy (DNA)
% inhibition values, listed per item
Quick note: give the figure in %, leave out the unit.

Before answering, review these 5 worked examples.
>>> result_value("548501 (antisense e[5mC]*eA*kA*dG*d[5mC]*d[5mC]*dA*d[5mC]*dT*dA*dA*d[5mC]*d[5mC]*k[5mC]*kA*e[5mC]) [compound 548501]")
33
>>> result_value("548484 (e[5mC]*e[5mC]*k[5mC]*d[5mC]*dG*dG*dA*dG*d[5mC]*dA*d[5mC]*d[5mC]*dT*kT*k[5mC]*eA; antisense) [compound 548484]")
41
>>> result_value("548526 (antisense e[5mC]*eT*kA*dA*dG*d[5mC]*dT*dG*dT*dG*dT*d[5mC]*dT*k[5mC]*kA*eT) [compound 548526]")
26
>>> result_value("548495 (antisense eT*eT*kG*dT*dG*dA*d[5mC]*d[5mC]*d[5mC]*d[5mC]*d[5mC]*d[5mC]*dA*k[5mC]*k[5mC]*eG) [compound 548495]")
55
>>> result_value("548505 (antisense eG*eG*kA*d[5mC]*dA*dA*dT*dG*d[5mC]*d[5mC]*dT*dA*dT*kG*k[5mC]*eT) [compound 548505]")
21

Could you now consider this next substance?
# get_value(readout= % inhibition, system= human PKK mRNA) for 548500 (antisense eA*eT*kT*dG*d[5mC]*dT*d[5mC]*dA*dG*dG*d[5mC]*d[5mC]*d[5mC]*k[5mC]*k[5mC]*eT) [compound 548500]
29

----------
Test system: human PKK mRNA
PROCEDURE DETAILS: Antisense inhibition of human PKK mRNA in HepaRG cells, 3,000 nM (Example 1)
Type: cell-based
TEST CONDITIONS: Table 3; HepaRG cells, electroporation with 3,000 nM antisense oligonucleotide, approx. 24 hours; PKK mRNA by RT-PCR (RTS3454), relative to untreated control cells
Strand notation (5' to 3'): a small letter for the sugar, then the base; units joined by * are phosphorothioate-linked, units joined directly phosphodiester-linked; [ ] holds rarer units or linkages, { } end groups; capitals alone tell only the bases. e = 2'-O-(2-methoxyethyl) (MOE); [5mC] = 5-methylcytosine; d = 2'-deoxy (DNA)
ASSAY METRIC: % inhibition (%)
Quick note: give the figure in %, leave out the unit.

Before answering, review these 2 worked examples.
>>> result_value("531151 (antisense eT*e[5mC]*eA*e[5mC]*e[5mC]*dA*d[5mC]*d[5mC]*dA*dT*dT*dT*dT*dT*d[5mC]*eA*e[5mC]*eA*eT*eG) [compound 531151]")
44
>>> result_value("531111 (antisense e[5mC]*eT*eT*e[5mC]*eT*d[5mC]*d[5mC]*dT*dG*dG*d[5mC]*dT*d[5mC]*dA*dG*eA*eA*eG*e[5mC]*eT) [compound 531111]")
68

Could you now consider this next substance?
# get_value(readout= % inhibition, system= human PKK mRNA) for 531098 (eT*eT*eA*eT*eT*dA*dG*dT*d[5mC]*dA*dA*dA*dT*d[5mC]*dA*e[5mC]*e[5mC]*e[5mC]*eA*eA; antisense) [compound 531098]
19

----------
% inhibition values, listed per item
Tested on: human PKK mRNA
PROCEDURE DETAILS: Antisense inhibition of human PKK mRNA in HepaRG cells, 3,000 nM (Example 1)
Assay type: cell-based
TEST CONDITIONS: Table 2; PKK mRNA, HepaRG cells, 3,000 nM, electroporation, ~24 h, relative to untreated control cells
Strand notation (5' to 3'): a small letter for the sugar, then the base; units joined by * are phosphorothioate-linked, units joined directly phosphodiester-linked; [ ] holds rarer units or linkages, { } end groups; capitals alone tell only the bases. e = 2'-O-(2-methoxyethyl) (MOE); [5mC] = 5-methylcytosine; d = 2'-deoxy (DNA)
Quick note: give the figure in %, leave out the unit.

Recorded % inhibition of 531077 (eA*eT*eG*e[5mC]*e[5mC]*dA*d[5mC]*dT*d[5mC]*dT*d[5mC]*d[5mC]*dA*dT*dG*e[5mC]*eT*eT*eT*eG; antisense) [compound 531077] , please.
51

Recorded % inhibition of 531064 (antisense eG*eT*eG*eT*eA*dG*dA*d[5mC]*dA*d[5mC]*d[5mC]*dA*dG*dG*dT*eT*eG*e[5mC]*eT*e[5mC]) [compound 531064] , please.
56

Recorded % inhibition of 531082 (eA*eT*eA*eT*eT*dG*dG*dT*dT*dT*dT*dT*dG*dG*dA*eA*eT*eT*e[5mC]*eT; antisense) [compound 531082] , please.
31

Recorded % inhibition of 531058 (antisense e[5mC]*e[5mC]*e[5mC]*eT*eT*dA*d[5mC]*dA*dA*dG*d[5mC]*dA*dT*d[5mC]*dT*eT*eT*eT*e[5mC]*e[5mC]) [compound 531058] , please.
60

Recorded % inhibition of 531060 (antisense eT*eG*eG*eT*eG*dA*dT*dG*d[5mC]*d[5mC]*d[5mC]*dA*d[5mC]*d[5mC]*dA*eA*eA*e[5mC]*eG*e[5mC]) [compound 531060] , please.
35

Recorded % inhibition of 531021 (eG*eT*e[5mC]*eT*eG*dA*d[5mC]*dA*dG*dA*dT*dT*dT*dA*dA*eA*eA*eT*eG*e[5mC]; antisense) [compound 531021] , please.
50

Recorded % inhibition of 531032 (antisense eT*eG*eG*eT*eT*dT*dT*dT*dG*dG*dA*dA*dT*dT*d[5mC]*eA*eG*eT*eG*eT) [compound 531032] , please.
67

Recorded % inhibition of 531018 (eG*eA*e[5mC]*e[5mC]*e[5mC]*dA*d[5mC]*dT*dG*dG*dT*dG*dT*d[5mC]*d[5mC]*eT*eA*eT*eG*eA; antisense) [compound 531018] , please.
54

Recorded % inhibition of 531048 (antisense eT*eT*eA*eT*eA*dA*dT*d[5mC]*dT*dT*dG*dA*dT*dA*dT*e[5mC]*eT*eT*eT*eT) [compound 531048] , please.
42

Recorded % inhibition of 531019 (eG*eT*eG*eA*eG*dG*dA*d[5mC]*d[5mC]*d[5mC]*dA*d[5mC]*dT*dG*dG*eT*eG*eT*e[5mC]*e[5mC]; antisense) [compound 531019] , please.
28

Recorded % inhibition of 531080 (e[5mC]*eA*eT*eT*eG*dT*d[5mC]*d[5mC]*dT*d[5mC]*dA*dG*d[5mC]*dA*dG*e[5mC]*eT*e[5mC]*eT*eG; antisense) [compound 531080] , please.
55

----------
Test system: human PKK mRNA
PROCEDURE DETAILS: Antisense inhibition of human PKK mRNA in HepaRG cells, 1,000 nM, MOE/deoxy/cEt oligonucleotides (Example 3)
Type: cell-based
TEST CONDITIONS: Table 19; HepaRG cells, electroporation with 1,000 nM antisense oligonucleotide, approximately 24 hours; PKK mRNA by RT-PCR (RTS3454), relative to untreated control cells
Strand notation (5' to 3'): a small letter for the sugar, then the base; units joined by * are phosphorothioate-linked, units joined directly phosphodiester-linked; [ ] holds rarer units or linkages, { } end groups; capitals alone tell only the bases. e = 2'-O-(2-methoxyethyl) (MOE); k = constrained ethyl (cEt); [5mC] = 5-methylcytosine; d = 2'-deoxy (DNA)
Response key: yes (1) means % inhibition >= 50%; no (0) means % inhibition < 50%.

>>> category("548104 (antisense eA*eT*kG*dT*dA*d[5mC]*dT*d[5mC]*dA*dG*d[5mC]*dG*dA*k[5mC]*kT*eT) [compound 548104]")
"yes (1)"
>>> category("548108 (antisense eG*eA*kG*d[5mC]*dT*dT*dT*dT*d[5mC]*d[5mC]*dA*dT*d[5mC]*kA*k[5mC]*eT) [compound 548108]")
"yes (1)"
>>> category("548125 (antisense e[5mC]*eT*kA*dG*dA*d[5mC]*dT*d[5mC]*dT*dG*dG*dA*d[5mC]*kT*kG*e[5mC]) [compound 548125]")
"yes (1)"
>>> category("548129 (eT*eT*kT*dG*dA*d[5mC]*dT*dT*dG*dA*dA*d[5mC]*dT*k[5mC]*kA*eG; antisense) [compound 548129]")
"no (0)"
>>> category("548146 (eG*eT*k[5mC]*d[5mC]*dT*dT*dA*dG*dG*dA*dT*dG*d[5mC]*kA*kA*eA; antisense) [compound 548146]")
"yes (1)"

For this substance, is measured % inhibition 50% or higher? 548101 (antisense eT*eA*k[5mC]*dT*d[5mC]*dA*dG*d[5mC]*dG*dA*d[5mC]*dT*dT*kT*kG*eG) [compound 548101]
no (0)

For this substance, is measured % inhibition 50% or higher? 548099 (antisense e[5mC]*eT*k[5mC]*dA*dG*d[5mC]*dG*dA*d[5mC]*dT*dT*dT*dG*kG*kT*eG) [compound 548099]
yes (1)

For this substance, is measured % inhibition 50% or higher? 548117 (antisense e[5mC]*eT*k[5mC]*dA*dT*dG*d[5mC]*dT*dG*dG*dT*dG*dA*k[5mC]*kT*eG) [compound 548117]
yes (1)

For this substance, is measured % inhibition 50% or higher? 548100 (antisense eA*e[5mC]*kT*d[5mC]*dA*dG*d[5mC]*dG*dA*d[5mC]*dT*dT*dT*kG*kG*eT) [compound 548100]
no (0)

For this substance, is measured % inhibition 50% or higher? 548112 (antisense eG*eT*kG*dA*d[5mC]*dT*dG*d[5mC]*dA*dT*d[5mC]*dT*dG*kA*kG*e[5mC]) [compound 548112]
no (0)

For this substance, is measured % inhibition 50% or higher? 548121 (antisense eT*e[5mC]*kT*dG*dG*dA*d[5mC]*dT*dG*d[5mC]*dT*dT*d[5mC]*kT*k[5mC]*eA) [compound 548121]
yes (1)

For this substance, is measured % inhibition 50% or higher? 548093 (antisense eT*eT*kT*dG*d[5mC]*dA*dA*dA*d[5mC]*dT*dA*dA*dG*kG*kG*eA) [compound 548093]
no (0)

For this substance, is measured % inhibition 50% or higher? 548114 (antisense eT*eG*kG*dT*dG*dA*d[5mC]*dT*dG*d[5mC]*dA*dT*d[5mC]*kT*kG*eA) [compound 548114]
yes (1)
